The measured values listed here are drawn from PubChem BioAssay AID588689.

assayed.target: Genome polyprotein (Dengue virus type 2 (strain 16681-PDK53)) (UniProt P29991)
procedure.text: flavivirus cap methylation enzyme inhibition – biochemical, confirmation dose response, primary screen (AID 588689)
condition.label: Dengue-2 NS5 methyltransferase capping enzyme assay, at 25 µM, active compounds read high
Among all 340,000 compounds or so, about 1,000 (0.29%) were called active. These entries were drawn from the full list. Potency and affinity values are given separately.
property.name: inhibition (%)
Answers are plain numbers, in %.

The following molecules have reported results that may help.
Ask: What inhibition value was documented for this molecule, O=Cc1cn(CCC(=O)O)nc1-c1cccc(Cl)c1 ?
Result: -3.9

Ask: Can you check CCOC(=O)/C(C#N)=C/c1cn(CCC(=O)O)nc1-c1cccc(Cl)c1 next?
Result: -8.58

Ask: Can you check Cc1ccc(NC(=O)c2cc(-c3cc(Cl)ccc3O)n[nH]2)cc1C next?
Result: -6.12

Ask: Can you check OCCNc1nc2ccccc2nc1NCCO next?
Result: 15.3

Ask: Can you check C=CCOc1ccc(/C=N/NC(=O)C(C)Sc2ccccn2)cc1OC (centres undefined) next?
Result: -7.22

Ask: Can you check Oc1ccccc1O next?
Result: 0.73

Ask: Can you check Cc1nnc(NC(=O)c2nc(S(=O)(=O)Cc3ccccc3)ncc2Cl)s1 next?
Result: 19.6

Ask: Can you check Cc1ccc(C(=O)O)cc1NC(=O)c1ccc2c(c1)C(=O)N(c1ccc([N+](=O)[O-])cc1)C2=O next?
Result: -4.57

// for each molecule below, give its inhibition
1. O=c1oc2ccccc2c(O)c1C=Nc1cccnc1
2. Nc1ccccc1O
3. Cc1ccc(Nc2ccc(C(=O)O)cc2[N+](=O)[O-])cc1
4. Cc1ccc2c(ccc[n+]2CC(=O)c2ccccc2)c1
5. CSc1nsc(SCC(=O)Nc2ccc(Cl)c(C(=O)O)c2)n1
6. O=Cc1cn(CCC(=O)O)nc1-c1cccc(Br)c1

Result:
1: -5.19; 2: -6.55; 3: 17; 4: -3.89; 5: 8.31; 6: 14.3

// for each molecule below, give its inhibition
1. NC(=S)N/N=C/c1cn(CCC(=O)O)nc1-c1cccc(Br)c1
2. COc1ccc(S(=O)(=O)NC2CCCC2)cc1C(N)=O
3. COc1ccccc1N1CCN(S(=O)(=O)c2ccc3nc(-c4ccccc4)[nH]c3c2)CC1
4. O=C(Nc1nc2n(n1)C(c1ccc(F)cc1)CC(c1ccccc1)N2)c1ccco1 (centres undefined)

Result:
[-15.9, -1.94, 1.09, -3.83]

Ask: What inhibition value was documented for this molecule, COc1ccc(Nc2ccc(C(=O)O)cc2[N+](=O)[O-])cc1 ?
Result: 3.64

* * *

assayed.target: Genome polyprotein (Dengue virus type 2 (strain 16681-PDK53)) (UniProt P29991)
procedure.text: flavivirus cap methylation enzyme inhibition – biochemical, confirmation dose response, primary screen (AID 588689)
condition.label: Dengue-2 NS5 methyltransferase capping enzyme assay, at 25 µM, active compounds read high
Among all 340,000 compounds or so, about 1,000 (0.29%) were called active. The list is a sample of the results. Potency and affinity values are given separately.
property.name: inhibition (%)
Numbers only, in %.

Ask: What inhibition value was documented for this compound, CC(=O)c1ccc2c(c1)C1C=CCC1C(c1ccncc1)N2 (stereo not drawn) ?
Result: 50.2

// for each compound below, give its inhibition
1. COc1cc(C2CC(=O)Oc3cc(O)ccc32)cc(OC)c1OC (stereo not drawn)
2. COc1ccc(C(c2c(C)[nH][nH]c2=O)c2c(C)[nH][nH]c2=O)cc1Br
3. O=C1c2ccccc2-c2nccnc21
4. CC(=O)Nc1ccc(-c2nc3cc(Cl)ccc3o2)cc1
5. O=C(O)C(Cc1ccc(O)cc1)N1C(=O)c2c(Cl)c(Cl)c(Cl)c(Cl)c2C1=O (stereo not drawn)
6. O=C1CSC(=Nc2ccc(O)cc2)N1c1ccc(O)cc1
7. Cc1ccc(S(=O)(=O)NCCN2CCOCC2)c(C)c1C

Result:
1.65
-3.47
1.62
0
16.9
-5.52
3.68
